# experiment.notes: Pharmacokinetic test in rats
# Type: in vivo, SD rats
# run.parameters: male, SD, rat, po; rats plasma, i.g. 5 mg/kg
quantity.name: AUC(0-t)

compound="[2H]C([2H])([2H])NC(=O)COc1cc2cc(Nc3nc(N4CCC(O[C@H]5C[C@H](N6CCN7c8cc(F)c(C9CCC(=O)NC9=O)cc8CC[C@H]7C6)C5)CC4)ncc3Cl)ccc2n(C)c1=O (stereo partly drawn) [Trifluoroacetate of compound 72]" assay_value="> 1000 ng·h/mL"
compound="[2H]C([2H])([2H])n1c(=O)c(OCC(=O)NC)cc2cc(Nc3nc(N4CCC(O[C@H]5C[C@H](N6CCN7c8cc(F)c(C9CCC(=O)NC9=O)cc8CC[C@H]7C6)C5)CC4)ncc3Cl)ccc21 (stereo partly drawn) [Trifluoroacetate of compound 73]" assay_value="> 1000 ng·h/mL"

Form field AUC(0-t), entry CNC(=O)COc1cc2cc(Nc3nc(N4CCN(CC5CCN(c6ccc(C7CCC(=O)NC7=O)cc6)CC5)CC4)ncc3Cl)ccc2n(C)c1=O (stereo not drawn) : > 1000 ng·h/mL
